Where do the numbers come from? From PubChem BioAssay.

Test System: Alpha-2C adrenergic receptor (Homo sapiens) (UniProt P18825)
Sequence (P18825 whole entry, looked up): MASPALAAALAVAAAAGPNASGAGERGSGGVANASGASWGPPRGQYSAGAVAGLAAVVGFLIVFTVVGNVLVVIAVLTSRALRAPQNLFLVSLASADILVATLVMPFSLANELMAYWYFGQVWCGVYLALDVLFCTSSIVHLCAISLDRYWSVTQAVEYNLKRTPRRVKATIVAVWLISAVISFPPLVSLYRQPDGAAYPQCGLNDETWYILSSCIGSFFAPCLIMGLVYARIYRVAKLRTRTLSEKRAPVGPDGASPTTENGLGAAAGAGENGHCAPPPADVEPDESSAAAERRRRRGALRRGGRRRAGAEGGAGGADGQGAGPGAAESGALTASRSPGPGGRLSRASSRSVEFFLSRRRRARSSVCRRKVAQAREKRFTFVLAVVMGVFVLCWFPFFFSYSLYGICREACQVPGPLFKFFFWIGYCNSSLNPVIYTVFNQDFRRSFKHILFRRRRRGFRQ
Procedure Text: modulators of alpha2C/GIRK thallium flux, primary screen, cell-based, HEK293 alpha2C/GIRK1/2 (AID 624);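 note: slope of fluorescence ratio to pre-addition baseline per second over 15 to 24 s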
Condition Label: thallium flux BTC fluorescence, at 10 µM, actives lie on both sides
For each of the molecules below, state its slope.
When you answer, write just the number.

Please look up its slope: O=C(NCc1cccnc1)C1CCCN(S(=O)(=O)c2ccc(Cl)cc2)C1 (stereo unspecified)
0.00732

Record: CCCC(=O)Nc1cnc(NC(=O)c2cccc(F)c2)cc1C
0.00559

And what about the molecule COc1cc(S(=O)(=O)N2CCOCC2)ccc1NC(=O)COC(=O)C12CC3CC(CC(C3)C1)C2 ?
0.00665

For COc1ccc(-n2c(=O)c3c4c(sc3n3c(C)nnc23)CCCC4)cc1 then?
0.00664

Next up: Nc1nonc1N1CCCCC1
0.00308

// next record Cc1nn(C(=O)c2cc3sccc3[nH]2)c(C)c1C
0.00333

----------
Test System: Voltage-gated potassium channel subunit beta-2 (Rattus norvegicus) (UniProt P62483)
Sequence (P62483 whole entry, looked up): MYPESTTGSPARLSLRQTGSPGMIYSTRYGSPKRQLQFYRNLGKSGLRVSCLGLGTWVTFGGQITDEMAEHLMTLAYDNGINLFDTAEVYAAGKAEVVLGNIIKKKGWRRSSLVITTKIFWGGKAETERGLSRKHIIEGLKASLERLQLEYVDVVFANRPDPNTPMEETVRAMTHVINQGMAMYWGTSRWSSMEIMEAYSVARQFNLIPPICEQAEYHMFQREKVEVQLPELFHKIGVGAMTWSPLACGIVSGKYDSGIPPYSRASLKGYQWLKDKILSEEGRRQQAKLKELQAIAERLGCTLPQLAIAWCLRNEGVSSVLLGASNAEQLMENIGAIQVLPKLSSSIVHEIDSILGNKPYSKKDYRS
Procedure Text: KvBeta positive modulators, primary screen, biochemical, NADPH fluorescence (AID 623);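 note: fluorescence intensity change per second fitted from 20 to 320 s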
Condition Label: Recombinant KvBeta, NADPH fluorescence decrease slope, 10 min; at 10 µM; stronger effect = lower value
Metric Name: NADPH fluorescence slope
Format: numeric value only, no unit, no commentary.

Write down the reported NADPH fluorescence slope of O=C(NCC1CCCO1)c1ccccc1-c1nc(-c2ccc(Cl)cc2)no1 (stereo not given) , test system: Voltage-gated potassium channel subunit beta-2 (Rattus norvegicus) (UniProt P62483).
3.6e-05

Also, COc1ccc(-c2nnc(SCC(=O)Nc3ccc(Cl)cc3)n2C)cc1 please.
3.4e-05

Also need CCCCCC1CC(CC(=O)O)C(=O)O1 (stereo not given) , thanks.
-5.4e-05

And O=C(Nc1nnc(-c2ccc(Cl)cc2)o1)C1CCCCC1 ?
-6.8e-05

Input COc1cc(C)nc(Nc2nc(C)c(C(C)=O)s2)n1
-8.3e-05

# iterate: O=C(OCC(=O)N1CCCC1)c1ccccc1OCc1ccccc1
-3.9e-05

And what about the compound COc1ccc(OC)c(-c2cc(C(=O)NCc3cccs3)no2)c1 ?
-5.5e-06

Note, next up: Cc1c(C(=O)OCc2ccccc2)[nH]c2c1C(=O)CC(c1ccco1)C2 (stereo not given)
-1.8e-05

// repeat for Cc1ccccc1Nc1cc2ccccc2c(=O)[nH]1 and report
1.6e-05

Try the compound C=CCOc1ccc(/C(O)=C2/C(=O)C(=O)N(CCCN3CCOCC3)C2c2ccc(OC)cc2)cc1 (stereo not given)
-0.000145

Can you handle CCc1cc(=O)oc2cc(C)c(CN3CCCC(C)C3)c(O)c12 (stereo not given) next?
-2.8e-05

# repeat for O=C(CSc1ncnc2c1oc1ccccc12)Nc1ccccc1C(F)(F)F
-5.9e-06

What would you report for CCn1c(C(=O)N2CCCC(C(=O)NCCCc3ccccc3)C2)cc2sccc21 (stereo not given) ?
-1.2e-05

Moving on to the next compound: Cc1ccc(S(=O)(=O)N(CC(O)CN2CCOCC2)c2cc(Cl)ccc2Cl)cc1 (stereo not given)
-2.9e-05

Try this compound too: Cc1ccc(-n2nnnc2SCC(=O)Nc2c(C)n(C)n(-c3ccccc3)c2=O)cc1
-1.3e-05

----------
Procedure Text: inhibitors of TNFa-induced NFkB p65 translocation, primary screen, imaging, HUVEC, MLSMR starter and 10KST1 sets (AID 438);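 note: compound added about 3h40 before a 20 min TNFalpha stimulation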;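 for inhibition: signal is the nuclear over cytoplasmic p65 intensity ratio per well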
Condition Label: HUVEC TNFa-induced p65 nuclear translocation; at 2 µM, stronger effect = higher value, 0% TNFa-plus-vehicle, 100% no-TNFa wells
Activity calls are given as the source filed them.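 Rule for the calls: active = inhibition above 20% together with a positive visual image hit; inconclusive = visual image hit but inhibition not above 20%; inactive = no visual image hit.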
Metric Name: inhibition

May I ask what inhibition has been recorded for Cc1c(C(=O)NCc2ccccn2)sc2nc(-c3ccc(F)cc3)cn12 ?
-5.5% (inactive)

Moving on to the next molecule: CCOC(=O)c1[nH]c2ccccc2c1NC(=O)CN(C)C
2.2% (inactive)

Note, next up: O=C(NCc1ccccn1)c1cccs1
12.5% (inactive)

Then what about the molecule Cc1noc(C)c1CSc1nnc2scc(-c3ccc(Cl)cc3)n12 ?
-0.4% (inactive)

Try this molecule next: Cc1ccc2cc3cc(C(=O)NCCN4CCOCC4)oc3nc2c1
-5% (inactive)

Quick one: O=S(=O)(Nc1nc2ccccc2nc1NCc1ccco1)c1cccs1
-6.2% (inactive)

Continue with Cc1sc(NC(=O)CSc2nnc(COc3ccccc3)n2C)c(C#N)c1C
2.2% (inactive)

----------
Would you mind telling me the reported fluorescence slope of each entry?
Test System: Muscarinic acetylcholine receptor M4 (Homo sapiens) (UniProt P08173)
Sequence (P08173 whole entry, looked up): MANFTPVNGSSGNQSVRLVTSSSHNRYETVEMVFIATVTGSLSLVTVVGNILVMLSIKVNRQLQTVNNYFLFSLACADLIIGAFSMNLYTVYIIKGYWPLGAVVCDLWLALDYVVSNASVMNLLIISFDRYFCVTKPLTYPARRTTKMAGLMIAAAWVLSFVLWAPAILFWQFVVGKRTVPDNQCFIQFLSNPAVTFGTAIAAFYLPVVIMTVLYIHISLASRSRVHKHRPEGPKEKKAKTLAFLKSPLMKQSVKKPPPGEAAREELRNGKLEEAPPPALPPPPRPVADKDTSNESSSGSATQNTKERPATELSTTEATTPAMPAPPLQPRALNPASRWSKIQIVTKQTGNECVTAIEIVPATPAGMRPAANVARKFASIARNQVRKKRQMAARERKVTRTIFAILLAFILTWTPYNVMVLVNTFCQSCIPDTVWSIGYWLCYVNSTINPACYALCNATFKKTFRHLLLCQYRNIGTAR
Procedure Text: compounds altering M4/GIRK thallium flux, either direction, primary screen, M4 allosteric agonist project, cell-based, HEK293 M4/GIRK, BTC-AM (AID 625);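 note: thallium influx through GIRK channels coupled to M4 in HEK293 cells with BTC-AM dye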
Condition Label: at 10 µM, actives lie on both sides
Could you respond with only the numeric value?

# input compound: O=C(NCCCn1ccnc1)c1cccnc1 ; wanted: its fluorescence slope
0.00592

Quick one: COC(=O)c1ccc(C2/C(=C(\O)c3cccc(OC)c3)C(=O)C(=O)N2CCCN2CCOCC2)cc1 (configuration not stated)
0.00584

Input CCCCSc1nnc(-c2ccc(NC(C)=O)cc2)n1C
0.00598

Another compound to check: COC(=O)CSc1nc(-c2cccs2)ccc1C#N
0.00605

Thanks! And CCN(CC)CCCN1C(=O)C(=O)/C(=C(/O)c2ccc3c(c2)CC(C)O3)C1c1ccncc1 (configuration not stated) ?
0.00593

Further, for COc1ccc(CC(=O)Nc2cccc(-c3nnc(-c4ccco4)o3)c2)cc1 ?
0.00587

Another compound to look at: COC(=O)CC1=C(C(=O)OC)C(c2cccc(OCC(N)=O)c2)C(C#N)=C(N)O1 (configuration not stated)
0.00612

----------
Procedure Text: inhibitors of poly I:C-induced TLR3 signaling, primary screen, cell-based, poly I:C stimulus, luciferase, 10K MLSCN set (AID 602277)
Condition Label: HEK293-TLR3 RL24 IRF3 luciferase reporter, at 10 µM, stronger effect = higher value
Could you label it yes if measured inhibition is -30% or higher, and no otherwise?

Please tell me: is the molecule CN(C)c1ccnc(NCc2ccccc2)c1C#N at or over -30% in terms of inhibition?
yes

Ok, now c1ccc(CNc2ncnc3ccccc23)cc1
no

Okay, and CCN(CC)S(=O)(=O)c1ccc(Br)c(OC)c1 ?
yes

// query: CCOc1ncccc1C(=O)Nc1ccc(Cl)cc1
yes

And for CCOc1ccc(CNc2ccc3c(c2)ncn3C)cc1 ?
no

Consider next the molecule COc1ccccc1N1CCN(C(=O)C(Cc2ccccc2)NC(=O)C2CCCCC2)CC1 (stereo unspecified) in the same way.
yes

----------
Test System: Muscarinic acetylcholine receptor M4 (Homo sapiens) (UniProt P08173)
Procedure Text: compounds altering M4/GIRK thallium flux, either direction, primary screen, M4 allosteric agonist project, cell-based, HEK293 M4/GIRK, BTC-AM (AID 625);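 note: thallium influx through GIRK channels coupled to M4 in HEK293 cells with BTC-AM dye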
Condition Label: at 10 µM, actives lie on both sides
Metric Name: fluorescence slope
Just the number.

Entry under review: COc1ccc(OC)c(C2C(C(=O)c3sc(C)nc3C)=C(O)C(=O)N2CCN2CCOCC2)c1 (centres undefined) . Reported fluorescence slope?
0.00498

Another compound: CCOC(=O)CNS(=O)(=O)c1cc(-c2n[nH]c(=O)c3ccccc23)ccc1C
0.00467

Would you kindly repeat that for CN1CCc2c(C#N)c(N3CCCCC3)nc(N3CCOCC3)c2C1 ?
0.00417

Next: Cn1c(=O)c2c(nc(NCc3ccco3)n2CCc2ccccc2)n(C)c1=O
0.00721

----------
Procedure Text: inhibitors of TNFa-induced NFkB p65 translocation, primary screen, imaging, HUVEC, MLSMR starter and 10KST1 sets (AID 438);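 note: compound added about 3h40 before a 20 min TNFalpha stimulation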
Condition Label: HUVEC TNFa-induced p65 nuclear translocation; measured here: nuclei count (cytotoxicity indicator), at 2.08 µM
Please enter Criterion met where cell count is greater than or equal to 600, and Criterion not met where it is lower.

Check this compound for cell count at or above 600: CCC(=O)Nc1nc(C)c(Oc2ccccc2)c(=O)[nH]1
Criterion met

Also check O=C(NCc1ccccn1)c1cccs1
Criterion not met

Subsequent entry: N#Cc1nc(-c2ccccc2Cl)oc1N1CCOCC1
Criterion not met

Again, but for COc1ccc(C)cc1S(=O)(=O)Nc1cccnc1
Criterion not met

Param item: Cn1c2c(c(=O)n(C)c1=O)C(c1cccc(Br)c1)C1C(=O)c3ccccc3C1=N2 (stereo unspecified)
Criterion met

Same question, CC(C)CSc1nc(N2CCOCC2)c2c(c1C#N)CC(C)(C)SC2 this time
Criterion not met

Next up: Cc1ccc(S(=O)(=O)N(CC(O)CN(C)C)c2ccccc2)cc1 (stereo unspecified)
Criterion not met

Please give the result for Cc1ccc(-n2ncc3c(NCc4ccc5c(c4)OCO5)ncnc32)c(C)c1 too.
Criterion not met

Thanks! And CC1CC(C)CN(Cc2nc3c(c(=O)n(C)c(=O)n3C)n2Cc2ccccc2Cl)C1 (stereo unspecified) ?
Criterion met

Same again, this time with Cc1cc(O)ccc1-c1cnc2ccccc2n1
Criterion met

Record: COC(=O)c1ccc(C2/C(=C(\O)c3ccc(OC)c(C)c3)C(=O)C(=O)N2c2cc(C)on2)cc1 (stereo unspecified)
Criterion met

// next record CCOC(=O)CNC(=O)CNC(=O)c1ccc(OC)cc1
Criterion not met

And for CCCCN1C(=O)C(O)=C(C(C)=O)C1c1ccc(OC)cc1OC (stereo unspecified) ?
Criterion not met

Now consider O=c1sc(Nc2ccccc2)nc2ccsc12 .
Criterion not met

Do the same for Oc1oc(-c2ccco2)nc1C=Nc1cccc(Cl)c1 please
Criterion not met
